# System: Fibroblast
# run_description: Multiplex assay against human fibroblast
# Type: toxicity, cell-based
# conditions: 48 h, 1 µM, compound concentration 1 uM, replicate 1
Please provide measured Population Hoechst High Intensity Objects (%) for the entries that follow.
Numbers only, in %.

Past entries and their recorded results:
{"molecule": "N#Cc1c(N)nc(SCc2csc(-c3ccc(Cl)cc3)n2)c(C#N)c1-c1ccc(OCCO)cc1", "measured_value": 2}
{"molecule": "C[C@H]1[C@H]2CC[C@H]3[C@@H]4CC=C5C[C@@H](N(C)C)CC[C@]5(C)[C@H]4CC[C@]23CN1C", "measured_value": 5}

Could you now look at the following molecule, please?
// query Kindly indicate its recorded Population Hoechst High Intensity Objects (%). Item: O=S(=O)(c1ccccc1)c1cnc2c(N3CCNCC3)cccc2c1 [INTEPIRDINE]
// result 5

----------
# Tested on: Fibroblast
# run_description: Multiplex assay against human fibroblast
# Format: toxicity, cell-based
# conditions: 12 h, 10 µM, compound concentration 10 uM, replicate 2
observed_property: Population Mitochondria Different-Phenotype (%)
Answers are plain numbers, in %.

{"molecule": "CC(=O)NCCc1c(Cc2ccccc2)[nH]c2ccccc12", "measured_value": 4}
{"molecule": "CC1(COc2ccc3c(c2)ncn3-c2ccc3cccc(N4CCC(N)CC4)c3n2)COC1", "measured_value": 9}
{"molecule": "Oc1c(CN2CCN(c3ccccn3)CC2)cc(Cl)c2cccnc12", "measured_value": 9}
{"molecule": "Cc1ccc(C(C)(O)c2nc3ccccc3s2)c(C)c1 (stereo not given)", "measured_value": 6}
{"molecule": "Cc1ccc(/C(=C\\CN2CCCC2)c2ccccn2)cc1", "measured_value": 9}
{"molecule": "O=C(O)Cc1ccccc1Nc1c(Cl)cccc1Cl", "measured_value": 8}
{"molecule": "Cc1nc2ccc(Oc3ccc(F)cc3)cc2c(=O)n1C[C@H]1CCCN(C(C)C)C1.Cl", "measured_value": 25}
{"molecule": "C[C@@H]1C[C@H]2[C@@H]3CCC4=CC(=O)C=C[C@]4(C)[C@@]3(F)[C@@H](O)C[C@]2(C)[C@@]1(O)C(=O)CO", "measured_value": 2}
{"molecule": "CSc1ccccc1N1CCN(CCCCCC(=O)NC2CCCc3ccccc32)CC1.Cl (stereo not given)", "measured_value": 36}

For the next question, use this molecule.
// query Hello, please tell me recorded Population Mitochondria Different-Phenotype (%) for this one: CNC[C@H](O)c1ccc(O)c(O)c1 [EPINEPHRINE]
// result 8

----------
# Test system: U2OS
# run_description: Multiplex assay against U2OS
# Format: toxicity, cell-based
# conditions: human, 12 h, 10 µM, compound concentration 10 uM, replicate 1
Task for the reader: assign each of the following compounds its reported Population Tubulin-Different-Phenotype (%).
Numbers only, in %.

{"structure_notation": "C[C@@H]1C[C@H]2[C@@H]3CCC4=CC(=O)C=C[C@]4(C)[C@@]3(F)[C@@H](O)C[C@]2(C)[C@@]1(O)C(=O)CO", "measured_value": 2}

Look up Population Tubulin-Different-Phenotype (%) for the entries below, preserving their order.
1. COc1c(C)cc(NC(=O)c2nn(Cc3ccc(F)cc3)c3c2CN(C(=O)c2ccc[nH]2)C[C@]3(C)C(N)=O)cc1C
2. Cc1ccc(F)cc1C(=O)Nc1ccc(C(=O)N2Cc3cccn3Cc3ccccc32)c(Cl)c1

// result
1: 95; 2: 85

// query Answer with the recorded Population Tubulin-Different-Phenotype (%) of `Cc1ccc(/C(=C\CN2CCCC2)c2ccccn2)cc1` only.
// result 24

----------
# Test system: Fibroblast
# run_description: Multiplex assay against human fibroblast
# Assay type: toxicity, cell-based
# conditions: 12 h, 10 µM, compound concentration 10 uM, replicate 1
Exercise: state measured Population Membrane Permeable-Phenotype (%) for each of the compounds provided.
The reply should read as a number followed by its unit.

Check out these entries, answers already filled in.
{"compound": "CN1CCN(c2nc3cc(C(F)(F)F)ccc3n3cccc23)CC1.O=C(O)/C=C\\C(=O)O.O=C(O)/C=C\\C(=O)O", "measured_value": "0%"}
{"compound": "Cc1ccc(/C(=C\\CN2CCCC2)c2ccccn2)cc1 [TRIPROLIDINE]", "measured_value": "0%"}
{"compound": "Cc1nc2ccc(Oc3ccc(F)cc3)cc2c(=O)n1C[C@H]1CCCN(C(C)C)C1.Cl", "measured_value": "1%"}
{"compound": "Cc1ccc(F)cc1C(=O)Nc1ccc(C(=O)N2Cc3cccn3Cc3ccccc32)c(Cl)c1 [LIXIVAPTAN]", "measured_value": "2%"}
{"compound": "N[C@@]1(C(=O)O)CO[C@H]2[C@H](C(=O)O)[C@H]21 [LY-379268]", "measured_value": "0%"}

# batch: return Population Membrane Permeable-Phenotype (%) for each of the 3 compounds below
1. C[C@H](NC(=O)c1c(C(F)F)nn(C)c1Oc1cccc(C(F)(F)F)c1)c1ccc(C(=O)O)cc1 [PALUPIPRANT]
2. O=C(NCC(=O)N1CC[C@H](N[C@H]2CC[C@@](O)(c3ccc(-c4ncccn4)cn3)CC2)C1)c1cccc(C(F)(F)F)c1 [PF-4136309]
3. CCCC(CCC)C(=O)O [VALPROIC ACID]

// result
1: 2%; 2: 0%; 3: 1%

----------
Give Total Cell Count for every item shown.
# System: HEK-293T
# run_description: Multiplex assay against HEK293T
# Assay type: toxicity, cell-based
# conditions: human, 24 h, 10 µM, compound concentration 10 uM, replicate 2
Answers are plain numbers.

{"compound": "Cc1ccc(-c2ccc(F)cc2COc2ccc(CCC(=O)O)cc2)cc1", "Total Cell Count": 461}
{"compound": "CCOc1c2c(c(OCC)c3ncccc13)CN(c1ccc(CS(=O)(=O)NC(=O)Cc3ccccc3OC)cc1C)C2=O", "Total Cell Count": 481}
{"compound": "O=C(NCCO)c1cccc(-c2cc(Nc3ccc(OC(F)(F)F)cc3)ncn2)c1", "Total Cell Count": 354}
{"compound": "CC(C)(C)c1ccc(S(=O)(=O)Nc2ccc(Cl)cc2C(=O)c2cc[n+]([O-])cc2)cc1", "Total Cell Count": 437}
{"compound": "N[C@@]1(C(=O)O)CO[C@H]2[C@H](C(=O)O)[C@H]21", "Total Cell Count": 470}
{"compound": "O=C(O)c1cc2ccccc2c(Cc2c(O)c(C(=O)O)cc3ccccc23)c1O", "Total Cell Count": 365}
{"compound": "c1cc(OCCCN2CCCCC2)ccc1CN1CCCCC1", "Total Cell Count": 322}
{"compound": "O=S(=O)(c1ccccc1)c1cnc2c(N3CCNCC3)cccc2c1 [INTEPIRDINE]", "Total Cell Count": 458}

Then this compound:
// query Quickly give me recorded Total Cell Count for `COc1cc(NC(=O)CCN2CCC(OC(=O)Nc3ccccc3-c3ccccc3)CC2)c(Cl)cc1CNC[C@H](O)c1ccc(O)c2[nH]c(=O)ccc12`
// result 357

----------
# Test system: Fibroblast
# run_description: Multiplex assay against human fibroblast
# Type: toxicity, cell-based
# conditions: 24 h, 1 µM, compound concentration 1 uM, replicate 1
observed_property: Population Mitochondria Different-Phenotype (%)
One number for each entry, in %.

Use these answered entries as a reference point.
{"compound": "O=C(O)c1cc2ccccc2c(Cc2c(O)c(C(=O)O)cc3ccccc23)c1O", "unit_abbreviation": "%", "measured_value": 2}
{"compound": "CSc1ccccc1N1CCN(CCCCCC(=O)NC2CCCc3ccccc32)CC1.Cl (centres undefined)", "unit_abbreviation": "%", "measured_value": 21}
{"compound": "CC[C@H]1OC(=O)[C@H](C)[C@@H](O[C@H]2C[C@@](C)(OC)[C@@H](O)[C@H](C)O2)[C@H](C)[C@@H](O[C@@H]2O[C@H](C)C[C@H](N(C)C)[C@H]2O)[C@@]2(C)CC(C)=C(O2)[C@H](C)[C@@H](O)[C@]1(C)O", "unit_abbreviation": "%", "measured_value": 7}
{"compound": "COc1cc(C(=O)N(CCCc2ccccc2)Cc2ccc(CC(=O)O)cc2)cc(OC)c1C", "unit_abbreviation": "%", "measured_value": 0}
{"compound": "CN1CCN2c3ncccc3Cc3ccccc3C2C1 (centres undefined)", "unit_abbreviation": "%", "measured_value": 5}

Each compound below has a reported value. Please supply its Population Mitochondria Different-Phenotype (%).
1. CSCC[C@H](NC=O)C(=O)N[C@@H](CC(C)C)C(=O)N[C@@H](Cc1ccccc1)C(=O)O
2. Oc1c(CN2CCN(c3ccccn3)CC2)cc(Cl)c2cccnc12
3. CN(C)c1ccnc2sc3c(=O)n(N4CCCCCC4)cnc3c12
4. Cc1nc2ccc(Oc3ccc(F)cc3)cc2c(=O)n1C[C@H]1CCCN(C(C)C)C1.Cl

// result
[4, 3, 3, 6]

----------
# System: U2OS
# run_description: Multiplex assay against U2OS
# Format: toxicity, cell-based
# conditions: human, 48 h, 1 µM, compound concentration 1 uM, replicate 1
So I've got a bunch of compounds here, and I need their Population Mitochondria Different-Phenotype (%) values.
Numbers only, in %.

{"compound": "COc1c(C)cc(NC(=O)c2nn(Cc3ccc(F)cc3)c3c2CN(C(=O)c2ccc[nH]2)C[C@]3(C)C(N)=O)cc1C", "unit_abbreviation": "%", "measured_value": 3}
{"compound": "O=C(O)c1cc2ccccc2c(Cc2c(O)c(C(=O)O)cc3ccccc23)c1O [PAMOIC ACID]", "unit_abbreviation": "%", "measured_value": 1}
{"compound": "COc1ccc2c(c1)C(C(=O)N(Cc1ccc(N(C)C)cc1)c1ccc(C(C)C)cc1)CCC2.Cl (centres undefined)", "unit_abbreviation": "%", "measured_value": 5}
{"compound": "CCCN1CCC[C@@H]2Cc3n[nH]cc3C[C@H]21.Cl [QUINPIROLE HYDROCHLORIDE]", "unit_abbreviation": "%", "measured_value": 1}

Value sought for every listed compound: Population Mitochondria Different-Phenotype (%).
1. c1cc(OCCCN2CCCCC2)ccc1CN1CCCCC1 [JNJ-5207852]
2. CC(=O)NCCc1c(Cc2ccccc2)[nH]c2ccccc12 [LUZINDOLE]
3. CCOc1c2c(c(OCC)c3ncccc13)CN(c1ccc(CS(=O)(=O)NC(=O)Cc3ccccc3OC)cc1C)C2=O
4. CNC[C@H](O)c1ccc(O)c(O)c1 [EPINEPHRINE]
5. Cc1ccccc1C(=O)Nc1ccc(C(=O)N2CCCC(N(C)C)c3ccccc32)cc1.Cl (centres undefined)

// result
[2, 2, 1, 5, 3]
